Molecular target: Polyunsaturated fatty acid 5-lipoxygenase (Homo sapiens, UniProt P09917)
Sequence (P09917 whole entry): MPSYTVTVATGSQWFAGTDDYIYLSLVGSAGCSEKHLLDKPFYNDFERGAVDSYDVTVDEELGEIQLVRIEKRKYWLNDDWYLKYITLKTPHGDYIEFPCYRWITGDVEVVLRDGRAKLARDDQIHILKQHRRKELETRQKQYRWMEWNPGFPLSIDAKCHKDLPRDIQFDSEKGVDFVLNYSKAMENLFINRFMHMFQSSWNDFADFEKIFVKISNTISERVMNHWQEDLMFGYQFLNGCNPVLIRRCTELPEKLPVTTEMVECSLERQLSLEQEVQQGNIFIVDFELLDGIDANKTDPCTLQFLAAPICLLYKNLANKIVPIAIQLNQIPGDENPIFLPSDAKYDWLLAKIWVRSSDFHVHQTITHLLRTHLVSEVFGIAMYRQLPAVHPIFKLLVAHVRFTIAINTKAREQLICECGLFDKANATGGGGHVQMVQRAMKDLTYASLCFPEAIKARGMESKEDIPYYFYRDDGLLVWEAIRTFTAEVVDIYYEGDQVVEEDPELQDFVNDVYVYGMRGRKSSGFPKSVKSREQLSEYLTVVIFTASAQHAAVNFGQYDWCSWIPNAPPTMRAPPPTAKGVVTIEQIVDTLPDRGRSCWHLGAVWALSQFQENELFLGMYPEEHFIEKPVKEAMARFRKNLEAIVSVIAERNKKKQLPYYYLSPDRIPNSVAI
Reported Endpoint: IC50 (µM)

[
  {
    "Smiles": "O=C1c2ccccc2-n2c1nc1ccccc1c2=O",
    "Unit Tag": "µM",
    "Readout Value": 0.15
  }
]
